Reference for the values: patent US20260042764A1

system: Avi-KRAS G12V (1-169) GppNHp/RAF1 RBD-3xFLAG (52-151) (Homo sapiens, UniProt P01116, G12V)
Construct: Avi-KRAS G12V (1-169)
Sequence (P01116 1-169 isoform P01116-2 G12V): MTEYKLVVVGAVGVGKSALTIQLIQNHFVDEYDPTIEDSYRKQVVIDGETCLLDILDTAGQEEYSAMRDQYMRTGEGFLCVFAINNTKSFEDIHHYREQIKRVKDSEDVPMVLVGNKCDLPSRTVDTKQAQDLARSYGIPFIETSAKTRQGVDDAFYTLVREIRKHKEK
assay_details: Raf1-KRAS G12V-GppNHP disruption HTRF assay (Biological Example 1)
Format: binding
setup_conditions: KRAS G12V, GppNHp-loaded; Table 11
# IC50 listing for each entry below

compound	IC50
Nc1nc2c(-c3c(C(F)(F)F)cc4c(N5CC(CO)C5)nc(OCC56CCCN5CCC6)nc4c3F)ccc(F)c2s1	> 10000 nM
Nc1nc2c(-c3c(C(F)(F)F)cc4c(N[C@H]5CC[C@H](O)CC5)nc(OCC56CCCN5CCC6)nc4c3F)ccc(F)c2s1	> 10000 nM
N#Cc1c(N)sc2c(F)ccc(-c3c(C(F)(F)F)cc4c(N5CCC(O)CC5)nc(OC[C@@]56CCCN5C[C@H](F)C6)nc4c3F)c12	100 to 1000 nM
N#Cc1c(N)sc2c(F)ccc(-c3c(C(F)(F)F)cc4c(N5CC6(CC(O)C6)C5)nc(OC[C@@]56CCCN5C[C@H](F)C6)nc4c3F)c12	100 to 1000 nM
CS(=O)(=O)C1CN(c2nc(OC[C@@]34CCCN3C[C@H](F)C4)nc3c(F)c(-c4ccc(F)c5sc(N)c(C#N)c45)c(C(F)(F)F)cc23)C1	1000 to 10000 nM
CN(c1nc(OC[C@@]23CCCN2C[C@H](F)C3)nc2c(F)c(-c3ccc(F)c4sc(N)c(C#N)c34)c(C(F)(F)F)cc12)[C@@H]1CCC[C@H]1CO	> 10000 nM
CN(c1nc(OC[C@@]23CCCN2C[C@H](F)C3)nc2c(F)c(-c3ccc(F)c4sc(N)nc34)c(C(F)(F)F)cc12)[C@H]1C[C@@H](O)C1 (atropisomer, axis not shown)	100 to 1000 nM
CC(=O)N1CCC(N(C)c2nc(OCC34CCCN3CC(F)C4)nc3c(F)c(-c4ccc(F)c5scc(C#N)c45)c(C(F)(F)F)cc23)C1 (centres unmarked)	> 10000 nM
N#Cc1c(N)sc2c(F)ccc(-c3c(C(F)(F)F)cc4c(N5C6COCC5C6)nc(OC[C@@]56CCCN5C[C@H](F)C6)nc4c3F)c12	100 to 1000 nM
C[C@H]1CN(c2nc(OC[C@@]34CCCN3C[C@H](F)C4)nc3c(F)c(-c4ccc(F)c5sc(N)c(C#N)c45)c(C(F)(F)F)cc23)CCO1	1000 to 10000 nM
N#Cc1c(N)sc2c(F)ccc(-c3c(C(F)(F)F)cc4c(N5CCC[C@H](O)C5)nc(OC[C@@]56CCCN5C[C@H](F)C6)nc4c3F)c12	100 to 1000 nM
N#Cc1c(N)sc2c(F)ccc(-c3c(C(F)(F)F)cc4c(N5CCNC(=O)CC5)nc(OC[C@@]56CCCN5C[C@H](F)C6)nc4c3F)c12	100 to 1000 nM
CN(c1nc(OCC23CCCN2CCC3)nc2c(F)c(-c3ccc(F)c4sc(N)nc34)c(C(F)(F)F)cc12)C1CC(O)C12CCCC2 (single isomer, unassigned)	> 10000 nM
N#Cc1c(N)sc2c(F)ccc(-c3c(C(F)(F)F)cc4c(N5CC[C@@H](CO)C5)nc(OC[C@@]56CCCN5C[C@H](F)C6)nc4c3F)c12	100 to 1000 nM
CCN(CCO)c1nc(OC[C@@H]2C[C@@H](F)CN2C)nc2c(F)c(-c3ccc(F)c4sc(N)c(C#N)c34)c(C(F)(F)F)cc12	100 to 1000 nM
N#Cc1c(N)sc2c(F)ccc(-c3c(C(F)(F)F)cc4c(N5C[C@@H]6C[C@H]5CO6)nc(OC[C@@]56CCCN5C[C@H](F)C6)nc4c3F)c12	1000 to 10000 nM
CN(c1nc(OC[C@@H]2CC3(CC3)CN2C)nc2c(F)c(-c3ccc(F)c4sc(N)c(C#N)c34)c(C(F)(F)F)cc12)C1CC(O)C1 (some centres unmarked)	100 to 1000 nM
CC(=O)N1C[C@H](F)[C@@H](N(C)c2nc(OC[C@@]34CCCN3C[C@H](F)C4)nc3c(F)c(-c4ccc(F)c5sc(N)c(C#N)c45)c(C(F)(F)F)cc23)C1	100 to 1000 nM
N#Cc1c(N)sc2c(F)ccc(-c3c(C(F)(F)F)cc4c(N(CCO)C5CC5)nc(OC[C@@]56CCCN5C[C@H](F)C6)nc4c3F)c12	100 to 1000 nM
CC(=O)N1CC[C@@H](N(C)c2nc(OC[C@@]34CCCN3C[C@H](F)C4)nc3c(F)c(-c4ccc(F)c5sc(N)c(C#N)c45)c(C(F)(F)F)cc23)C1	100 to 1000 nM
N#Cc1c(N)sc2c(F)ccc(-c3c(C(F)(F)F)cc4c(N5CC[C@@H](O)C5)nc(OC[C@@]56CCCN5C[C@H](F)C6)nc4c3F)c12	100 to 1000 nM
Nc1nc2c(-c3c(C(F)(F)F)cc4c(N5CCC(O)CC5)nc(OCC56CCCN5CCC6)nc4c3F)ccc(F)c2s1	> 10000 nM
C[C@@]1(O)CCCN(c2nc(OC[C@@]34CCCN3C[C@H](F)C4)nc3c(F)c(-c4ccc(F)c5sc(N)c(C#N)c45)c(C(F)(F)F)cc23)C1	100 to 1000 nM

* * *

system: Avi-KRAS WT (1-169) GppNHp/RAF1 RBD-3xFLAG (52-151) (Homo sapiens, UniProt P01116)
Construct: Avi-KRAS WT (1-169)
Sequence (P01116 1-169 isoform P01116-2): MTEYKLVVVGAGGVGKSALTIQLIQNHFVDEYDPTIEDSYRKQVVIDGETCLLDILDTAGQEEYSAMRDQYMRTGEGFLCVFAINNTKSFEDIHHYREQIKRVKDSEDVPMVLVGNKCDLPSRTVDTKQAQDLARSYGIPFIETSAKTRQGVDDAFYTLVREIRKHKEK
assay_details: Raf1-KRAS WT-GppNHP disruption HTRF assay (Biological Example 1)
Type: binding
setup_conditions: KRAS WT, GppNHp-loaded; class symbols
# IC50 listing for each entry below

molecule	IC50
N#Cc1c(N)sc2c(F)ccc(-c3c(C(F)(F)F)cc4c(N5C[C@H]6C[C@@H]5CO6)nc(OC[C@]56C[C@@H](F)CN5CC5(CC5)C6)nc4c3F)c12	1000 to 10000 nM
CN(C)C(=O)c1nn2c(c1C(F)(F)F)CN(c1nc(OC[C@@]34CCCN3C[C@H](F)C4)nc3c(F)c(-c4ccc(F)c5sc(N)c(C#N)c45)c(C(F)(F)F)cc13)CC2 (atropisomer, axis not shown)	100 to 1000 nM
N#Cc1c(N)sc2c(F)ccc(-c3c(C(F)(F)F)cc4c(N5CCn6nc(C(=O)N7CCCC7)cc6C5)nc(OCC56CCCN5CC(F)C6)nc4c3F)c12 (centres unmarked)	100 to 1000 nM
CCN(c1nc(OC[C@@]23CCCN2C[C@H](F)C3)nc2c(F)c(-c3ccc(F)c4sc(N)c(C#N)c34)c(C(F)(F)F)cc12)[C@H]1CCN(C(=O)[C@H](C)OC)[C@@H]1C (atropisomer, axis not shown)	< 100 nM
N#Cc1c(N)sc2c(F)ccc(-c3c(C(F)(F)F)cc4c(N5CCn6nc(C(=O)N7CCC7)cc6C5)nc(OCC56CCCN5CC(F)C6)nc4c3F)c12 (centres unmarked)	100 to 1000 nM

* * *

# IC50 listing for each entry below
system: Avi-KRAS WT (2-169) GTP/RAF1 RBD-3xFLAG (51-131) (Homo sapiens, UniProt P01116)
Construct: Avi-KRAS WT (2-169)
Sequence (P01116 2-169 isoform P01116-2): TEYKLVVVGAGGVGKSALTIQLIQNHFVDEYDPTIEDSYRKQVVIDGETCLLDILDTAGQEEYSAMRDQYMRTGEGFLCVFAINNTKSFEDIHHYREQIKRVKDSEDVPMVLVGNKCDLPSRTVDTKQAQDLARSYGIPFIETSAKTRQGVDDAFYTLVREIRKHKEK
assay_details: Raf1-KRAS WT-GTP disruption HTRF assay (Biological Example 3)
Assay type: binding
setup_conditions: KRAS WT, GTP-loaded
Procedure: Biological Example 3: Disrupting RAS-Effector Binding HTRF Assay A protein:protein interaction (PPI) Homogeneous Time Resolved Fluorescence (HTRF) assay was used to determine the effectiveness of compounds in disrupting KRAS protein and effector (RAF1) binding. […] Plates were analyzed on an Envision plate reader using the following setting: Excitation 320 nm, Bandwidth 75 nm; Emission 615 nm, Bandwidth 85 nm; Gain 100%; Flashes 100; Lag 60 μs. […] Data was plotted and analyzed using Prism 8. […]
quantity_measured: IC50

compound	quantity_measured	measurement
CCN(c1nc(OC[C@@]23CCCN2C[C@H](F)C3)nc2c(F)c(-c3ccc(F)c4sc(N)c(C#N)c34)c(C(F)(F)F)cc12)C1C[C@@H](C)N(C(=O)C2CC2)C1 (stereo partly drawn)	IC50	100 to 1000 nM
CCN(c1nc(OC[C@@]23CCCN2C[C@H](F)C3)nc2c(F)c(-c3ccc(F)c4sc(N)c(C#N)c34)c(C(F)(F)F)cc12)[C@H]1C[C@H](C)N(C(=O)C2COC2)C1 (atropisomer, axis not shown)	IC50	100 to 1000 nM
CN(Cc1ccncc1)c1nc(OC[C@@]23CCCN2C[C@H](F)C3)nc2c(F)c(-c3ccc(F)c4sc(N)c(C#N)c34)c(C(F)(F)F)cc12 (atropisomer, axis not shown)	IC50	1000 to 10000 nM
CN(c1nc(OC[C@@]23CCCN2C[C@H](F)C3)nc2c(F)c(-c3ccc(F)c4sc(N)c(C#N)c34)c(C(F)(F)F)cc12)[C@H]1C[C@@H](O)C1	IC50	≤ 100 nM
CCN(c1nc(OC[C@@]23CCCN2C[C@H](F)C3)nc2c(F)c(-c3ccc(F)c4sc(N)c(C#N)c34)c(C(F)(F)F)cc12)[C@@H]1CC[C@H](C(=O)N(C)C)C1	IC50	1000 to 10000 nM
CCN(c1nc(OC[C@@]23CCCN2C[C@H](F)C3)nc2c(F)c(-c3ccc(F)c4sc(N)c(C#N)c34)c(C(F)(F)F)cc12)[C@H]1CCN(C(=O)c2ncc(C#N)s2)C1 (atropisomer, axis not shown)	IC50	1000 to 10000 nM
N#Cc1c(N)sc2c(F)ccc(-c3c(C(F)(F)F)cc4c(N5CCNS(=O)(=O)CC5)nc(OC[C@@]56CCCN5C[C@H](F)C6)nc4c3F)c12	IC50	100 to 1000 nM
CCN(c1nc(OC[C@@]23CCCN2C[C@H](F)C3)nc2c(F)c(-c3ccc(F)c4sc(N)c(C#N)c34)c(C(F)(F)F)cc12)[C@H]1C[C@@H](C)N(C(=O)C2COC2)C1 (atropisomer, axis not shown)	IC50	100 to 1000 nM
CCN(c1nc(OC[C@@]23CCCN2C[C@H](F)C3)nc2c(F)c(-c3ccc(F)c4sc(N)c(C#N)c34)c(C(F)(F)F)cc12)[C@H]1CCN(C(=O)OC)[C@@H]1COC (atropisomer, axis not shown)	IC50	100 to 1000 nM
CCN(c1nc(OC[C@@]23CCCN2C[C@H](F)C3)nc2c(F)c(-c3ccc(F)c4sc(N)c(C#N)c34)c(C(F)(F)F)cc12)[C@H]1CCN(C(=O)[C@H]2CCO2)[C@H]1C (atropisomer, axis not shown)	IC50	1000 to 10000 nM
C[C@H](c1cccnc1N)N(C)c1nc(OC[C@@]23CCCN2C[C@H](F)C3)nc2c(F)c(-c3ccc(F)c4sc(N)c(C#N)c34)c(C(F)(F)F)cc12 (atropisomer, axis not shown)	IC50	100 to 1000 nM
CCN(c1nc(OC[C@@]23CCCN2C[C@H](F)C3)nc2c(F)c(-c3ccc(F)c4sc(N)c(C#N)c34)c(C(F)(F)F)cc12)[C@H]1CCN(C(=O)N(C)C)[C@@H]1C (atropisomer, axis not shown)	IC50	≤ 100 nM
CCN(c1nc(OC[C@@]23CCCN2C[C@H](F)C3)nc2c(F)c(-c3ccc(F)c4sc(N)c(C#N)c34)c(C(F)(F)F)cc12)[C@H]1CCN(C(=O)N(C)C)[C@@H]1COC (atropisomer, axis not shown)	IC50	100 to 1000 nM
CN(Cc1cccc(=O)n1C)c1nc(OC[C@@]23CCCN2C[C@H](F)C3)nc2c(F)c(-c3ccc(F)c4sc(N)c(C#N)c34)c(C(F)(F)F)cc12 (atropisomer, axis not shown)	IC50	> 10000 nM
CCN(c1nc(OC[C@@]23CCCN2C[C@H](F)C3)nc2c(F)c(-c3ccc(F)c4sc(N)c(C#N)c34)c(C(F)(F)F)cc12)[C@@H]1C=C[C@H](C(=O)N(C)C)C1 (atropisomer, axis not shown)	IC50	1000 to 10000 nM
CCN(c1nc(OC[C@@]23CCCN2C[C@H](F)C3)nc2c(F)c(-c3ccc(F)c4sc(N)c(C#N)c34)c(C(F)(F)F)cc12)[C@H]1C[C@H]2COCC(=O)N2C1 (atropisomer, axis not shown)	IC50	100 to 1000 nM
CCN(c1nc(OC[C@@]23CCCN2C[C@H](F)C3)nc2c(F)c(-c3ccc(F)c4sc(N)c(C#N)c34)c(C(F)(F)F)cc12)[C@H]1CCN(C(=O)O[C@H]2CO[C@H]3OCC[C@H]32)C1 (atropisomer, axis not shown)	IC50	100 to 1000 nM
CCN(c1nc(OC[C@@]23CCCN2C[C@H](F)C3)nc2c(F)c(-c3ccc(F)c4sc(N)c(C#N)c34)c(C(F)(F)F)cc12)[C@H]1C[C@H](COC)N(C(=O)C2CC2)C1 (atropisomer, axis not shown)	IC50	100 to 1000 nM
